# Test system: HepG2
# methodSummary: CellTiterGlo cell viability assay, initial screening
# Type: cell-based
# condition: HepG2; 72 hr; Table II
Please note: M.I. %: maximum percentage inhibition of cell viability exactly at 70% is Not fulfilled. Only values below 70% get Fulfilled.

Ask: Answer whether the compound COC(=O)C(C)(C)NP(=O)(OC[C@@H]1C[C@@H](O)[C@H](n2cnc3c(N)ncnc32)O1)Oc1cccc2ccccc12 (stereo partly shown) has M.I. %: maximum percentage inhibition of cell viability strictly less than 70%
Result: Fulfilled

Ask: Problem: For the compound C[C@H](NP(=O)(OC[C@@H]1C[C@@H](OP(=O)(N[C@@H](C)C(=O)OCc2ccccc2)Oc2ccccc2)[C@H](n2cnc3c(N)ncnc32)O1)Oc1ccccc1)C(=O)OCc1ccccc1 (stereo partly shown) , is M.I. %: maximum percentage inhibition of cell viability under 70%?
Result: Fulfilled

Ask: Just wondering, is M.I. %: maximum percentage inhibition of cell viability of CCOC(=O)CCc1ccccc1OP(=O)(N[C@@H](C)C(=O)OCc1ccccc1)OC[C@@H]1C[C@@H](O)[C@H](n2cnc3c(N)ncnc32)O1 (stereo partly shown) below 70%?
Result: Not fulfilled

Ask: For C[C@H](NP(=O)(OC[C@@H]1C[C@@H](O)[C@H](n2cnc3c(N)ncnc32)O1)Oc1cccc2ccccc12)C(=O)OCc1ccccc1 (stereo partly shown) , is the recorded M.I. %: maximum percentage inhibition of cell viability below the cut-off of 70%?
Result: Not fulfilled

Ask: Would you kindly verify if M.I. %: maximum percentage inhibition of cell viability of Nc1ncnc2c1ncn2[C@@H]1O[C@H](CO)C[C@H]1O [Cordycepin, 3′-deoxyadenosine, reference compound] is strictly less than 70%?
Result: Fulfilled

Ask: Just wondering, is M.I. %: maximum percentage inhibition of cell viability of C[C@H](NP(=O)(Oc1cccc2ccccc12)O[C@@H]1C[C@@H](CO)O[C@H]1n1cnc2c(N)ncnc21)C(=O)OCc1ccccc1 (stereo partly shown) below 70%?
Result: Not fulfilled

Ask: Consider the compound C[C@H](NP(=O)(N[C@@H](C)C(=O)OCc1ccccc1)OC[C@@H]1CC(O)[C@H](n2cnc3c(N)ncnc32)O1)C(=O)OCc1ccccc1 (stereo in doubt) . Is its M.I. %: maximum percentage inhibition of cell viability strictly less than 70%?
Result: Fulfilled

Ask: Does the reported M.I. %: maximum percentage inhibition of cell viability of Nc1ncnc2c1ncn2[C@@H]1O[C@H](COP(=O)(NCC(=O)OCc2ccccc2)Oc2ccccc2)C[C@H]1O (stereo partly shown) stay below 70%?
Result: Fulfilled

Ask: # check: M.I. %: maximum percentage inhibition of cell viability < 70% for CCCCCOC(=O)[C@H](CC(C)C)NP(=O)(OC[C@@H]1C[C@@H](O)[C@H](n2cnc3c(N)ncnc32)O1)Oc1cccc2ccccc12 (mixture of isomers)
Result: Not fulfilled

Ask: Quick check: M.I. %: maximum percentage inhibition of cell viability of C[C@H](NP(=O)(Oc1ccccc1)O[C@@H]1C[C@@H](CO)O[C@H]1n1cnc2c(N)ncnc21)C(=O)OCc1ccccc1 (stereo partly shown) under 70%?
Result: Fulfilled

----------
# System: K562
# methodSummary: CellTiterGlo cell viability assay, initial screening
# Format: cell-based
# condition: 72 hr, Table II
# Experimental: In vitro viability assays were performed to assess the effects of compounds on cell viability in 7 selected cell lines over 72 hr using the CellTiterGlo (CTG, Promega-G7573) assay. The tests were performed in duplicates with treatment of compounds at 9 points, 3.16 folds titration in 96 well plates over ˜72 hr. […] All compound solubilities were checked and recorded again, then the plates were transferred to CO2 tissue culture incubator immediately and incubated for 3 days. […]
Lab note - cut at 90% for M.I. %: maximum percentage inhibition of cell viability: y if strictly below, n if not.

Ask: For C[C@H](NP(=O)(N[C@@H](C)C(=O)OCc1ccccc1)OC[C@@H]1CC(O)[C@H](n2cnc3c(N)ncnc32)O1)C(=O)OCc1ccccc1 (stereo in doubt) , is the recorded M.I. %: maximum percentage inhibition of cell viability below the cut-off of 90%?
Result: n

Ask: Decide: M.I. %: maximum percentage inhibition of cell viability of C[C@H](NP(=O)(OC[C@@H]1C[C@@H](O)[C@H](n2cnc3c(N)ncnc32)O1)Oc1cccc2ccccc12)C(=O)OCc1ccccc1 (stereo partly drawn) strictly below 90%?
Result: n

Ask: Does the reported M.I. %: maximum percentage inhibition of cell viability of COC(=O)C(C)(C)NP(=O)(OC[C@@H]1C[C@@H](O)[C@H](n2cnc3c(N)ncnc32)O1)Oc1cccc2ccccc12 (stereo partly drawn) stay below 90%?
Result: y
